Where do these numbers come from? They come from patent US6824998B2.

Molecular target: TPP-1 (Mus musculus)
Construct: from tissue; host or cells: frozen 10 µm sections of paraformaldehyde-fixed tissues (e.g. kidney) from C57BL/6J mice (Jackson Laboratory)
Sequence (O89023 195-562): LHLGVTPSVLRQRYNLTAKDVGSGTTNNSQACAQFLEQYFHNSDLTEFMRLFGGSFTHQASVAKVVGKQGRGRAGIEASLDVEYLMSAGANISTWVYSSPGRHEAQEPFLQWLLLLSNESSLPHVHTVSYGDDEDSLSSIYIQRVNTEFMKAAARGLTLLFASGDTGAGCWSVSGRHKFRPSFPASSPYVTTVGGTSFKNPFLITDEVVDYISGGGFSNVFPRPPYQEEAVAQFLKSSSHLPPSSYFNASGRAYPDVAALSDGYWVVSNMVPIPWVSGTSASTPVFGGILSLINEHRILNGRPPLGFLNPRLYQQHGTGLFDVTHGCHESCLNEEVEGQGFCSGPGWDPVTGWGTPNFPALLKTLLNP
Experiment: TPP-1 histochemical staining of frozen sections of murine tissues
Format: biochemical
Settings: frozen sections of murine tissues
observed_property: Hydrolysis by endogenous TPP-1 in murine tissues

* C[C@H](N)C(=O)N[C@@H](C)C(=O)N[C@@H](Cc1ccccc1)C(=O)NNc1cccc2c1C(=O)c1ccccc1C2=O | readily hydrolyzed
* NCC(=O)N1CCC[C@H]1C(=O)N[C@@H](CO)C(=O)NNc1cccc2c1C(=O)c1ccccc1C2=O | readily hydrolyzed
* C[C@H](NC(=O)[C@@H]1CCCN1C(=O)CN)C(=O)n1nc2c3c(c(Cl)ccc31)C(=O)c1ccccc1-2 | readily hydrolyzed
